Molecular target: human Nav1.7 (Homo sapiens, UniProt Q15858)
Construct: expressed in transfected cells; host or cells: HEK293
Sequence (Q15858 whole entry): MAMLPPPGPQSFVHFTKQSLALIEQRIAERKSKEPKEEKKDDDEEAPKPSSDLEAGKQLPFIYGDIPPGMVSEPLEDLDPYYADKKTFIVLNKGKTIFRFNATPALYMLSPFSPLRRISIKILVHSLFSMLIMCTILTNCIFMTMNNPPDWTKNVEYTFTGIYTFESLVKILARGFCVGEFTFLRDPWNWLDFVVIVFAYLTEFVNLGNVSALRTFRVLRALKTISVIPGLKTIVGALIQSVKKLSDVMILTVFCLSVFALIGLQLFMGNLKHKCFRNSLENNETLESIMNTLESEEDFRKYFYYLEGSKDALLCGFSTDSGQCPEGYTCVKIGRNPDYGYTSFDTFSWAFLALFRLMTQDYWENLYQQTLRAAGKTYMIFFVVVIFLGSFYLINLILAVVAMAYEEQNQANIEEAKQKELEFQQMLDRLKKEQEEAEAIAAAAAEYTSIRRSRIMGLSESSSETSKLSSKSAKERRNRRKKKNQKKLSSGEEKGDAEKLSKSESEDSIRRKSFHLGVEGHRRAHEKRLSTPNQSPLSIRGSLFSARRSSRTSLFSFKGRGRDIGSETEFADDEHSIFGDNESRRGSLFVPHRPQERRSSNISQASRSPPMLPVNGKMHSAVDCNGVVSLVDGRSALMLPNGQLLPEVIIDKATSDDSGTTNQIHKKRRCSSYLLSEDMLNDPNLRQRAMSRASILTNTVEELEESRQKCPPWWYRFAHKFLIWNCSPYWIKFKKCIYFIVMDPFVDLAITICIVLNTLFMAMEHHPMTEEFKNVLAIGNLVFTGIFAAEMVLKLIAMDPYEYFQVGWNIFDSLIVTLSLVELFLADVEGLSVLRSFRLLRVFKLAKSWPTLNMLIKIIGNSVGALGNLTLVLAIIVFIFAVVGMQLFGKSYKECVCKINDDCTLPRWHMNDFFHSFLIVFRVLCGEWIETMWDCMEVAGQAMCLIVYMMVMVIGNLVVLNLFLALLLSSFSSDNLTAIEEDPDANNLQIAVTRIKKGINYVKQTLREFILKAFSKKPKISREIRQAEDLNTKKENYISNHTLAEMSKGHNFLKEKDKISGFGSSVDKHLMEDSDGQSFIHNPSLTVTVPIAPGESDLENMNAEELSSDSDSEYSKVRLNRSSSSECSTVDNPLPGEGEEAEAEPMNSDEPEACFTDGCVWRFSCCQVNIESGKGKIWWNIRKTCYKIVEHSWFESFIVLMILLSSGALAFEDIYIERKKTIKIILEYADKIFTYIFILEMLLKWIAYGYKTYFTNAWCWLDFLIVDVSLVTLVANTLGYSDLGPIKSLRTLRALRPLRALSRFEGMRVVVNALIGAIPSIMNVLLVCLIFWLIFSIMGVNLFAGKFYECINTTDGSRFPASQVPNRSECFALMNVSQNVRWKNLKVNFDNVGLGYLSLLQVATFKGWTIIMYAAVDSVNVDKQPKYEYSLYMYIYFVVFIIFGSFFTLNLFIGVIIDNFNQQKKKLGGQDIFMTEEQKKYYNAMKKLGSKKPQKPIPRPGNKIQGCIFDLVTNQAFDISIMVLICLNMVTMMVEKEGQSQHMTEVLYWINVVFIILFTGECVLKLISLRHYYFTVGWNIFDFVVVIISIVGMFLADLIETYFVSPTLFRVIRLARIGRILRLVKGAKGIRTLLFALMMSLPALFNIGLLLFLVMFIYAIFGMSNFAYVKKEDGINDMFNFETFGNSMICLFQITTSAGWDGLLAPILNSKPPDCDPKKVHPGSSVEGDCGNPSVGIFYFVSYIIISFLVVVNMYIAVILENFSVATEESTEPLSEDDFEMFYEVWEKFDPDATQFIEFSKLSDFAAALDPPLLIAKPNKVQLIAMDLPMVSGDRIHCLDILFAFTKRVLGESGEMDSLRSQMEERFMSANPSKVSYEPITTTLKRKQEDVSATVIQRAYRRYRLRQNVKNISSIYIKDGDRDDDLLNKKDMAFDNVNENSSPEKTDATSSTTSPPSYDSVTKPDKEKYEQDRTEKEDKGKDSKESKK
Experiment: Nav 1.7 In Vitro PatchXpress (PX) Assay
Assay type: cell-based
Conditions: HEK 293 cells stably transfected with human Nav1.7; PatchXpress whole cell voltage clamp; partially inactivated state (holding potential yielding 20 to 50% inactivation); read-out: hNav1.7 PX IC50
MEASUREMENT KIND: IC50 (nM)

COc1cc(-c2cc(F)cc(Cl)c2)ccc1-n1c2c(ccc1=O)CN(S(=O)(=O)Nc1cccnn1)CC2 (racemic) [8-(Rac)] | 350
COc1cc(-c2cc(F)cc(F)c2)c(F)cc1-n1c2c(ccc1=O)[C@H](C)N(S(=O)(=O)Nc1ccon1)CC2 (single isomer, unassigned) [Example 3-B-P] | 2080
COc1cc(Cl)cc(-c2cc(OC)c(-n3c4c(ccc3=O)CN(S(=O)(=O)Nc3cccnn3)CC4)cc2F)c1 | 20
COc1cc(-c2ccc(F)c(C)c2)c(Cl)cc1-n1c2c(ccc1=O)CN(S(=O)(=O)Nc1cccnn1)CC2 (racemic) [Example 92-(Rac)] | 63.5
COc1cc(-c2cc(F)cc(Cl)c2)c(F)cc1-n1c2c(ccc1=O)CN(S(=O)(=O)Nc1ncccn1)CC2 (single isomer, unassigned) [Example 31-P] | 205
COc1cc(-c2cccc(C(F)(F)F)c2)c(F)cc1-n1c2c(ccc1=O)CN(S(=O)(=O)Nc1ccon1)CC2 (single isomer, unassigned) [Example 16-P] | 15.8
COc1cc(-c2ccc(Cl)cc2)c(F)cc1-n1c2c(ccc1=O)CN(S(=O)(=O)Nc1cccnn1)CC2 | 195
COc1ccc(Cl)cc1-c1cc(OC)c(-n2c3c(ccc2=O)CN(S(=O)(=O)Nc2cccnn2)CC3)cc1F | 48.1

1. COc1cc(-c2cccc(OC(F)F)c2)c(F)cc1-n1c2c(ccc1=O)CN(S(=O)(=O)Nc1ccon1)CC2 (single isomer, unassigned) [Example 19-P]
2. COc1cc(-c2cc(F)cc(F)c2)c(F)cc1-n1c2c(ccc1=O)CN(S(=O)(=O)Nc1cccc(F)n1)CC2 (single isomer, unassigned) [Example 14-P]
INPUT: Between the entries labeled 1 and 2 , whose measured IC50 is lower? Select an item and report its label.
OUTPUT: 1

1. COc1cc(-c2cccc(C(F)(F)F)c2)c(F)cc1-n1c2c(ccc1=O)CN(S(=O)(=O)Nc1ccon1)CC2 (racemic) [Example 16-(Rac)]
2. COc1cc(-c2cc(F)cc(Cl)c2)c(F)cc1-n1c2c(ccc1=O)CN(S(=O)(=O)Nc1cccc(F)n1)CC2 (single isomer, unassigned) [Example 13-M]
INPUT: Between the entries labeled 1 and 2 , whose measured IC50 is lower? Select an item and report its label.
OUTPUT: 1

A. COc1cc(-c2cc(OC)c(-n3c4c(ccc3=O)CN(S(=O)(=O)Nc3ccon3)CC4)cc2F)ccc1C (single isomer, unassigned) [Example 58-P]
B. COc1cc(-c2cccc(C(F)(F)F)c2)c(Cl)cc1-n1c2c(ccc1=O)CN(S(=O)(=O)Nc1cccnn1)CC2 (single isomer, unassigned) [Example 91-P]
C. COc1cc(-c2cc(F)cc(F)c2)c(F)cc1-n1c2c(ccc1=O)CN(S(=O)(=O)Nc1ncon1)CC2 (racemic) [Example 17-(Rac)]
D. COc1cc(-c2ccc(C)c(F)c2)c(F)cc1-n1c2c(ccc1=O)CN(S(=O)(=O)Nc1ccon1)CC2 (single isomer, unassigned) [Example 21-P]
INPUT: // ranking: key=IC50, reverse=True In your reply, arrange the labels in the requested order.
OUTPUT: C, A, D, B
(C: 1120 nM, A: 107 nM, D: 24.3 nM, B: 16.9 nM)

P. COc1cc(-c2cc(F)cc(Cl)c2)c(F)cc1-n1c2c(ccc1=O)CN(S(=O)(=O)Nc1cccnn1)CC2 (racemic) [Example 38-(Rac)]
Q. COc1nc(-c2cc(F)cc(Cl)c2)c(F)cc1-n1c2c(ccc1=O)CN(S(=O)(=O)Nc1cccnn1)CC2 (racemic)
INPUT: Hi, I'm comparing P with Q and wondering which one has the bigger number for IC50. Any idea? Select an item and report its label.
OUTPUT: Q
(Q: 1030 nM, P: 87.8 nM)
